target: Galectin-3 (Homo sapiens); test: Ratio IC50 for lactose to compound for galectin-3 binding to biotinylated neoglycoprotein with p-isothiocyanatophynyl lactoside assessed as lectin-neoglycoprotein complex formation after 1 hr by spectrophotometric analysis
Value Type: Ratio IC50
Give bare numbers.

1. Cc1nc(NC(=O)Cc2ccccc2)sc1[C@@H]1O[C@H](CO)[C@H](O)[C@H](O)[C@H]1O 1.1
2. Cc1nc(NC(=O)c2ccccc2)sc1[C@@H]1O[C@H](CO)[C@H](O)[C@H](O)[C@H]1O 1.3
3. O=C(O)c1cn([C@H]2[C@@H](O)[C@@H](CO)O[C@@H](Sc3nc4ccccc4s3)[C@@H]2O)nn1 1.4

Quick one: give me Ratio IC50 for each item below, same order please.
1. C#CCO[C@H]1[C@@H](O)[C@@H](CO)O[C@@H](Sc2ccccc2C(=O)OC)[C@@H]1O
2. CC(C)(C)C(=O)c1cc(CO[C@@H]2O[C@H](CO)[C@H](O[C@@H]3O[C@H](CO)[C@H](O)[C@H](O)[C@H]3O)[C@H](O)[C@H]2O)on1

[out]
[1.8, 1.6]

Quick one: give me Ratio IC50 for each item below, same order please.
1. O=C(CCSCCC(F)(F)C(F)(F)C(F)(F)C(F)(F)C(F)(F)C(F)(F)C(F)(F)C(F)(F)F)NC(CO[C@@H]1O[C@H](CO)[C@H](O)[C@H](O)[C@H]1O)(CO[C@@H]1O[C@H](CO)[C@H](O)[C@H](O)[C@H]1O)CO[C@@H]1O[C@H](CO)[C@H](O)[C@H](O)[C@H]1O
2. O=C(NCc1cn([C@@H]2O[C@H](CO)[C@H](O[C@@H]3O[C@H](CO)[C@H](O)[C@H](O)[C@H]3O)[C@H](O)[C@H]2O)nn1)c1cc(C(=O)NCc2cn([C@@H]3O[C@H](CO)[C@H](O[C@@H]4O[C@H](CO)[C@H](O)[C@H](O)[C@H]4O)[C@H](O)[C@H]3O)nn2)cc(C(=O)NCc2cn([C@@H]3O[C@H](CO)[C@H](O[C@@H]4O[C@H](CO)[C@H](O)[C@H](O)[C@H]4O)[C@H](O)[C@H]3O)nn2)c1

[out]
1. 6.2
2. 8.4

----------
Could you please report measured inhibition at 48 h, 2000 µM for the items listed next?
assay: Cytotoxicity against human SW480 cells assessed as cell viability at 2 mM after 48 hrs by MTT assay; format: cell-based; conditions: SW480 cells, read-out: GI
Give bare numbers, in %.

1. O=C(NCc1cn([C@@H]2O[C@H](CO)[C@H](O[C@@H]3O[C@H](CO)[C@H](O)[C@H](O)[C@H]3O)[C@H](O)[C@H]2O)nn1)c1cc(C(=O)NCc2cn([C@@H]3O[C@H](CO)[C@H](O[C@@H]4O[C@H](CO)[C@H](O)[C@H](O)[C@H]4O)[C@H](O)[C@H]3O)nn2)cc(C(=O)NCc2cn([C@@H]3O[C@H](CO)[C@H](O[C@@H]4O[C@H](CO)[C@H](O)[C@H](O)[C@H]4O)[C@H](O)[C@H]3O)nn2)c1 58

[in] Dear colleague, I am looking for the recorded inhibition at 48 h, 2000 µM of the following compound: O=C(O)c1cn([C@H]2[C@@H](O)[C@@H](CO)O[C@@H](Sc3nc4ccccc4s3)[C@@H]2O)nn1
[out] 40
